- Tested on: 598228-144-R-J1-PDC complex spheroid viability
- method.summary: Anticancer human tumor 598228-144-R-J1-PDC patient-derived serous endometrial adenocarcinoma cell line growth inhibition [GQUAD]
- condition.parameters: second compound 0.0316 µM; first compound 0.316 µM; hits give low values
Labelling: viability, T/C reported below 40% becomes condition met; at or above becomes condition not met.

Please let me know if O=C(c1cc(Cc2n[nH]c(=O)c3ccccc23)ccc1F)N1CCN(C(=O)C2CC2)CC1 + Cc1[nH]c2ccc(F)cc2c1-c1nc2c3cccnc3c3ncccc3c2[nH]1 shows viability, T/C below 40%. condition not met

Same thing, different molecule: CCc1c2c(nc3ccc(O)cc13)-c1cc3c(c(=O)n1C2)COC(=O)[C@]3(O)CC + Cc1[nH]c2ccc(F)cc2c1-c1nc2c3cccnc3c3ncccc3c2[nH]1 condition met

Same thing, different molecule: CC(=O)O[C@H]1C(=O)[C@@]2(C)[C@H]([C@H](OC(=O)c3ccccc3)[C@]3(O)C[C@H](OC(=O)[C@H](O)[C@@H](NC(=O)c4ccccc4)c4ccccc4)C(C)=C1C3(C)C)[C@]1(OC(C)=O)CO[C@@H]1C[C@@H]2O + CN(C)c1ccc(Nc2c3ccc(NC(=O)CCN4CCCC4)cc3nc3cc(NC(=O)CCN4CCCC4)ccc23)cc1 condition not met

Same thing, different molecule: COc1cc(C2c3cc4c(cc3C(OC3OC5COC(C)OC5C(O)C3O)C3COC(=O)C23)OCO4)cc(OC)c1O (stereo unspecified) + Cc1[nH]c2ccc(F)cc2c1-c1nc2c3cccnc3c3ncccc3c2[nH]1 condition not met

Same thing, different molecule: O=C(NO)c1cnc(N2CCN(S(=O)(=O)c3ccc4ccccc4c3)CC2)nc1 + CN(C)c1ccc(Nc2c3ccc(NC(=O)CCN4CCCC4)cc3nc3cc(NC(=O)CCN4CCCC4)ccc23)cc1 condition met

Same thing, different molecule: O=c1[nH]cc(F)c(=O)[nH]1 + Cc1cnc(CNC(=O)c2c(=O)c3ccc(N4CCCN(C)CC4)nc3n3c2sc2ccccc23)cn1 condition not met

----------
- Test system: 598228-144-R-J1-PDC complex spheroid viability
- method.summary: Anticancer human tumor 598228-144-R-J1-PDC cell line growth inhibition [GQUAD];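 also: spheroids exposed to the agents for one week before reading; percent of vehicle DMSO control viability so 100% = untreated growth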
- condition.parameters: second compound 10 µM; first compound 10 µM; hits give low values
measurement.name: viability, T/C (%)
// return numeric value only (unit: %, not printed)

Some entries whose results are on file:
- CC1COCCN1c1cc(C2(S(C)(=N)=O)CC2)nc(-c2ccnc3[nH]ccc23)n1 (stereo not drawn) + Cc1[nH]c2ccc(F)cc2c1-c1nc2c3cccnc3c3ncccc3c2[nH]1: 41.5
- O=c1[nH]cc(F)c(=O)[nH]1 + CN(C)c1ccc(Nc2c3ccc(NC(=O)CCN4CCCC4)cc3nc3cc(NC(=O)CCN4CCCC4)ccc23)cc1: 64

Give viability, T/C (598228-144-R-J1-PDC complex spheroid viability) of the following compound: C#Cc1c(F)ccc2cc(O)cc(-c3ncc4c(N5CC6CCC(C5)N6)nc(OCC56CCCN5CC(F)C6)nc4c3F)c12 (stereo not drawn) + CN(C)c1ccc(Nc2c3ccc(NC(=O)CCN4CCCC4)cc3nc3cc(NC(=O)CCN4CCCC4)ccc23)cc1 28.7

----------
- Test system: 598228-144-R-J1-PDC complex spheroid viability
- method.summary: Anticancer human tumor 598228-144-R-J1-PDC cell line growth inhibition [GQUAD];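 also: spheroids exposed to the agents for one week before reading; percent of vehicle DMSO control viability so 100% = untreated growth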
- condition.parameters: second compound 10 µM; first compound 10 µM; hits give low values
Use viability, T/C to assign classes; range list: low bracket = under 5%, middle bracket = from 5% up to 40%, high bracket = 40% and over

• CC1COCCN1c1cc(C2(O)CC3CCC(C2)O3)c2cnn(-c3ccn[nH]3)c2n1 (centres undefined) + CN(C)c1ccc(Nc2c3ccc(NC(=O)CCN4CCCC4)cc3nc3cc(NC(=O)CCN4CCCC4)ccc23)cc1 = low bracket

Tag the class for C=CCn1c(=O)c2cnc(Nc3ccc(N4CCN(C)CC4)cc3)nc2n1-c1cccc(C(C)(C)O)n1 + CN(C)c1ccc(Nc2c3ccc(NC(=O)CCN4CCCC4)cc3nc3cc(NC(=O)CCN4CCCC4)ccc23)cc1 low bracket

Same thing, different compound: CCCS(=O)(=O)Nc1ccc(F)c(C(=O)c2c[nH]c3ncc(-c4ccc(Cl)cc4)cc23)c1F + Cc1[nH]c2ccc(F)cc2c1-c1nc2c3cccnc3c3ncccc3c2[nH]1 high bracket

Same thing, different compound: COc1ccc([C@@H](O)c2cc(-c3ncnc4cc(N5CCOCC5)ccc34)c(F)cc2Cl)nn1 + Cc1[nH]c2ccc(F)cc2c1-c1nc2c3cccnc3c3ncccc3c2[nH]1 middle bracket

Same thing, different compound: CC1COCCN1c1cc(C2(S(C)(=N)=O)CC2)nc(-c2ccnc3[nH]ccc23)n1 (centres undefined) + CN(C)c1ccc(Nc2c3ccc(NC(=O)CCN4CCCC4)cc3nc3cc(NC(=O)CCN4CCCC4)ccc23)cc1 middle bracket

Same thing, different compound: Nc1ccn(C2OC(CO)C(O)C2(F)F)c(=O)n1 (centres undefined) + CN(C)c1ccc(Nc2c3ccc(NC(=O)CCN4CCCC4)cc3nc3cc(NC(=O)CCN4CCCC4)ccc23)cc1 middle bracket

Same thing, different compound: C#Cc1c(F)ccc2cc(O)cc(-c3ncc4c(N5CC6CCC(C5)N6)nc(OCC56CCCN5CC(F)C6)nc4c3F)c12 (centres undefined) + Cc1[nH]c2ccc(F)cc2c1-c1nc2c3cccnc3c3ncccc3c2[nH]1 high bracket

Same thing, different compound: C=CC(=O)N1CCN(c2nc(=O)n(-c3c(C)ccnc3C(C)C)c3nc(-c4c(O)cccc4F)c(F)cc23)C(C)C1 (centres undefined) + Cc1cnc(CNC(=O)c2c(=O)c3ccc(N4CCCN(C)CC4)nc3n3c2sc2ccccc23)cn1 middle bracket

----------
- Tested on: 598228-144-R-J1-PDC complex spheroid viability
- method.summary: Anticancer human tumor 598228-144-R-J1-PDC cell line growth inhibition [GQUAD];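 also: spheroids exposed to the agents for one week before reading; percent of vehicle DMSO control viability so 100% = untreated growth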
- condition.parameters: second compound 0.316 µM; first compound 1 µM; hits give low values
Listed here: items and their measured viability, T/C.
// return numeric value only (unit: %, not printed)

* COc1cccc2c1C(=O)c1c(O)c3c(c(O)c1C2=O)CC(O)(C(=O)CO)CC3OC1CC(N)C(O)C(C)O1 (configuration not stated) + Cc1cnc(CNC(=O)c2c(=O)c3ccc(N4CCCN(C)CC4)nc3n3c2sc2ccccc23)cn1 | 44.1
* CC1COCCN1c1cc(C2(S(C)(=N)=O)CC2)nc(-c2ccnc3[nH]ccc23)n1 (configuration not stated) + Cc1[nH]c2ccc(F)cc2c1-c1nc2c3cccnc3c3ncccc3c2[nH]1 | 47
* CC(C)(O)C1CCC(Nc2ccc3ncc(-c4cccc(C(F)(F)F)c4)n3n2)CC1 (configuration not stated) + Cc1[nH]c2ccc(F)cc2c1-c1nc2c3cccnc3c3ncccc3c2[nH]1 | 93.8
* O=C(c1cc(Cc2n[nH]c(=O)c3ccccc23)ccc1F)N1CCN(C(=O)C2CC2)CC1 + Cc1cnc(CNC(=O)c2c(=O)c3ccc(N4CCCN(C)CC4)nc3n3c2sc2ccccc23)cn1 | 65.2
* CC1COCCN1c1cc(C2(O)CC3CCC(C2)O3)c2cnn(-c3ccn[nH]3)c2n1 (configuration not stated) + Cc1cnc(CNC(=O)c2c(=O)c3ccc(N4CCCN(C)CC4)nc3n3c2sc2ccccc23)cn1 | 36.4

May I ask what viability, T/C has been recorded for O=C(NO)c1cnc(N2CCN(S(=O)(=O)c3ccc4ccccc4c3)CC2)nc1 + Cc1cnc(CNC(=O)c2c(=O)c3ccc(N4CCCN(C)CC4)nc3n3c2sc2ccccc23)cn1 ? 0.27

Same thing, different molecule: CCCS(=O)(=O)Nc1ccc(F)c(C(=O)c2c[nH]c3ncc(-c4ccc(Cl)cc4)cc23)c1F + Cc1[nH]c2ccc(F)cc2c1-c1nc2c3cccnc3c3ncccc3c2[nH]1 103

----------
- Tested on: 598228-144-R-J1-PDC complex spheroid viability
- method.summary: Anticancer human tumor 598228-144-R-J1-PDC cell line growth inhibition [GQUAD];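 also: spheroids exposed to the agents for one week before reading; percent of vehicle DMSO control viability so 100% = untreated growth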
- condition.parameters: second compound 3.16 µM; first compound 0.1 µM; hits give low values
measurement.name: viability, T/C (%)
// return numeric value only (unit: %, not printed)

- CC1COCCN1c1cc(C2(S(C)(=N)=O)CC2)nc(-c2ccnc3[nH]ccc23)n1 (centres undefined) + Cc1cnc(CNC(=O)c2c(=O)c3ccc(N4CCCN(C)CC4)nc3n3c2sc2ccccc23)cn1: 49.9
- O=C(NO)c1cnc(N2CCN(S(=O)(=O)c3ccc4ccccc4c3)CC2)nc1 + CN(C)c1ccc(Nc2c3ccc(NC(=O)CCN4CCCC4)cc3nc3cc(NC(=O)CCN4CCCC4)ccc23)cc1: 38.9
- O=c1[nH]cc(F)c(=O)[nH]1 + CN(C)c1ccc(Nc2c3ccc(NC(=O)CCN4CCCC4)cc3nc3cc(NC(=O)CCN4CCCC4)ccc23)cc1: 113

Pending compound:
Give viability, T/C (598228-144-R-J1-PDC complex spheroid viability) of the following compound: C#Cc1c(F)ccc2cc(O)cc(-c3ncc4c(N5CC6CCC(C5)N6)nc(OCC56CCCN5CC(F)C6)nc4c3F)c12 (centres undefined) + CN(C)c1ccc(Nc2c3ccc(NC(=O)CCN4CCCC4)cc3nc3cc(NC(=O)CCN4CCCC4)ccc23)cc1 101

Where do these numbers come from? They come from PubChem BioAssay AID2060506.
